- Experimental Target: Acetyl-CoA carboxylase 1 (Rattus norvegicus, UniProt P11497)
- Assay Name: Inhibition of N-terminal His-tagged rat recombinant ACC1 expressed in high five insect cells by ATP consumption assay
Quantity: IC50 (µM)
State just the number; it will be interpreted in µM.

Lab note: CC(=O)NC(C)CCc1ccc(Oc2ccc(OCc3ccccc3)cn2)cc1 (stereo unspecified) gave IC50 of 2.1

Short answer for CC(CCc1ccc(Oc2ccc(OC(C)C)nc2)cc1)NC(N)=O (stereo unspecified) : IC50 was 2.9

The measured IC50 associated with "CC(=O)N[C@@H](C)CCc1ccc(Oc2ccc(OC(C)C)cn2)cc1" reads 2.6

molecule CC(CCc1ccc(Oc2ccc(OC(C)C)nc2)cc1)NC=O (stereo unspecified) , IC50 observed: 11

The measured IC50 associated with "CC(=O)N[C@@H](C)CCc1ccc(Oc2ccc(OCc3ccccc3)cn2)cc1" reads 1.2

// sample "CC(=O)N[C@@H](C)CC[C@H]1CC[C@H](Oc2ccc(OC(C)C)nc2)CC1" , its IC50 was 1.14
